# subject.of.test: HT29 β5c (Homo sapiens)
# protocol.text: Durability of binding in cells (wash-out, Proteasome-Glo), HT29 β5c
# Assay type: cell-based
# condition.set: 18 hr after inhibitor washout
reported.endpoint: IC50

Qu. Endpoint output: IC50 of CC(C)(C)NC(=O)C(C#N)=Cc1cccc(OCCC(=O)N[C@@H](Cc2ccccc2)B(O)O)c1 [Example 2] . Value?
Ans. > 5 µM

* * *

# subject.of.test: PBMC LMP7 (Homo sapiens, UniProt P28062)
# protocol.text: Inhibition of proteasome activity in cells (Proteasome-Glo), PBMC/LMP7
# Type: cell-based
# condition.set: 2 h incubation at 37° C.
reported.endpoint: IC50 (nM)
Please reply with the bare figure in nM and do not write the unit itself.

Study these solved cases before continuing.
compound	IC50 / nM
N#CC(=Cc1cccc(OCCC(=O)N[C@@H](Cc2ccccc2)B(O)O)c1)c1ccccn1 [Example 6]	7
CC(C)(C)NC(=O)C(C#N)=Cc1cccc(OCCC(=O)N[C@@H](Cc2ccccc2)B(O)O)c1 [Example 2]	5

Please look at the following compound next.
Qu. So what does the record say about IC50 for N#CC(=Cc1cccc(CCOC(=O)N[C@@H](Cc2ccccc2)B(O)O)c1)c1ncccc1F [Example 54] ?
Ans. 4

* * *

# subject.of.test: constitutive proteasome β5c subunit (Homo sapiens, UniProt P28074)
# protocol.text: Caliper-based proteasome enzymatic activity assay, β5c
# condition.set: human recombinant constitutive proteasome 0.3 nM, FAM peptide substrate 1 μM, rt 3 h
pIC50: −log10 of the molar value.
Label y when pIC50 >= 7; otherwise n.

Some solved entries appear below for comparison.
molecule	label.class
CCN(C(=O)C(C#N)=Cc1cccc(CCOC(=O)N[C@@H](Cc2ccccc2)B(O)O)c1)C1CCOCC1 [Example 70]	n
N#CC(=Cc1cccc(CCOC(=O)N[C@@H](Cc2ccccc2)B(O)O)c1)c1ncccn1 [Example 60]	n

Qu. Textbook exercise: given the entry CCN(C(=O)C(C#N)=Cc1ccc2c(c1)CN(CC(=O)N[C@@H](Cc1coc3ccccc13)B(O)O)CC2)C1CCOCC1 [Example 105] , state whether its pIC50 is greater than or equal to 7.
Ans. y

* * *

The entries below come with measured IC50 values attached.
# subject.of.test: constitutive proteasome β5c subunit (Homo sapiens, UniProt P28074)
# protocol.text: Caliper-based proteasome enzymatic activity assay, β5c
# condition.set: human recombinant constitutive proteasome 0.3 nM, FAM peptide substrate 1 μM, rt 3 h
# unit: nM | format: bare number

smiles	result.value
CN(C)C(=O)C(C#N)=Cc1cccc(CCOC(=O)N[C@@H](Cc2coc3ccccc23)B(O)O)c1	212
N#CC(=Cc1cccc(OCCC(=O)N[C@@H](Cc2ccccc2)B(O)O)c1)c1ccc(C(F)(F)F)cn1	95
Cc1ccc(C[C@H](NC(=O)OCCc2cccc(C=C(C#N)c3ccccn3)c2)B(O)O)cc1	188
CCN(CC)C(=O)C(C#N)=Cc1cc(C#N)cc(CCOC(=O)N[C@@H](Cc2ccccc2)B(O)O)c1	2870

Qu. Give the measured IC50 of `CN(C)C(=O)C(C#N)=Cc1cc(OCCC(=O)N[C@@H](Cc2ccccc2)B(O)O)ccc1F` .
Ans. 192

* * *

# subject.of.test: immunoproteasome LMP7/B5i subunit (Homo sapiens, UniProt P28062)
# protocol.text: Caliper-based proteasome enzymatic activity assay, LMP7
# condition.set: human recombinant immunoproteasome 0.3 nM, FAM peptide substrate 1 μM, rt 3 h
Category key, based on recorded IC50: lower bin = under 2 nM, middle bin = from 2 nM up to 5 nM, upper bin = 5 nM and over

Consider the worked cases shown below.
molecule	label.class
N#CC(=Cc1cc(CO)cc(CCOC(=O)N[C@@H](Cc2ccccc2)B(O)O)c1)c1ccccn1 [Example 76]	middle bin
Cc1ccc(C[C@H](NC(=O)OCCc2cccc(C=C(C#N)C(=O)N(C)C)c2)B(O)O)cc1 [Example 50]	lower bin
CCN(C(=O)C(C#N)=Cc1cccc(CCOC(=O)N[C@@H](Cc2ccccc2)B(O)O)c1)C(C)C [Example 64]	middle bin
CN(C)C(=O)C(C#N)=Cc1cccc(CCOC(=O)N[C@@H](Cc2coc3ccccc23)B(O)O)c1 [Example 53]	lower bin
CN(C(=O)C(C#N)=Cc1cccc(CCOC(=O)N[C@@H](Cc2ccccc2)B(O)O)c1)C(C)(C)C [Example 71]	lower bin
COc1ccc(C=C(C#N)c2ccccn2)cc1OCCC(=O)N[C@@H](Cc1ccccc1)B(O)O [Example 29]	upper bin
CC(C)(C)NC(=O)C(C#N)=Cc1cccc(CC[C@H](NC(=O)c2cc(Cl)ccc2Cl)C(=O)N[C@@H](Cc2ccccc2)B(O)O)c1 [Example 4]	lower bin
N#CC(=Cc1cccc(CCCC(=O)N[C@@H](Cc2ccccc2)B(O)O)c1)n1cncn1 [Example 25]	upper bin

Qu. Which band does CN(C)C(=O)C(C#N)=Cc1cccc(COC(=O)N[C@@H](Cc2ccccc2)B(O)O)c1 [Example 15] fall in?
Ans. upper bin

Qu. Hello team, could you let me know which band the following molecule falls into: CNC(=O)C(C#N)=Cc1cccc(OCCC(=O)N[C@@H](Cc2ccccc2)B(O)O)c1 [Example 20]
Ans. middle bin

Qu. Assign a category based on measured IC50 for CN(C(=O)C(C#N)=Cc1cccc(OCCC(=O)N[C@@H](Cc2ccccc2)B(O)O)c1)c1ccccc1 [Example 22] and give only the class name.
Ans. middle bin

Qu. Pick a category. Item: N#CC(=Cc1cccc(OCCC(=O)N[C@@H](Cc2ccccc2)B(O)O)c1)c1ccccn1 [Example 6]
Ans. upper bin

Qu. Field: class (IC50) — entry: N#CC(=Cc1cccc(CCNC(=O)N[C@@H](Cc2coc3ccccc23)B(O)O)c1)c1ncccn1 [Example 94]
Ans. middle bin

* * *

# IC50 per record follows
# subject.of.test: constitutive proteasome β5c subunit (Homo sapiens, UniProt P28074)
# protocol.text: Caliper-based proteasome enzymatic activity assay, β5c
# condition.set: human recombinant constitutive proteasome 0.3 nM, FAM peptide substrate 1 μM, rt 3 h
Record the value in µM, omitting the unit from your answer.

Worked set:
smiles	IC50 [µM]
N#CC(=Cc1cccc(CCOC(=O)N[C@@H](Cc2coc3ccccc23)B(O)O)c1)c1ccccn1	0.066
N#CC(=Cc1cccc(CCOC(=O)N[C@@H](Cc2ccccc2)B(O)O)c1)c1ccc(C(F)(F)F)cn1	0.439
CN(C)C(=O)C(C#N)=Cc1cccc(CCCC(=O)N[C@@H](Cc2ccccc2)B(O)O)c1	1.93

Qu. So what IC50 did `CN(C(=O)C(C#N)=Cc1cccc(CCOC(=O)N[C@@H](Cc2ccccc2)B(O)O)c1)C(C)(C)C` get with constitutive proteasome β5c subunit (Homo sapiens, UniProt P28074)?
Ans. 2.42

Qu. # value lookup — system constitutive proteasome β5c subunit (Homo sapiens, UniProt P28074), readout IC50, item `CCN(CC)C(=O)C(C#N)=Cc1cccc(CCOC(=O)N[C@@H](Cc2ccc(C)cc2)B(O)O)c1`
Ans. 1.18

Qu. Test system constitutive proteasome β5c subunit (Homo sapiens, UniProt P28074); read-out IC50; what value for `N#CC(=Cc1cccc(CCNC(=O)N[C@@H](Cc2coc3ccccc23)B(O)O)c1)c1ncccn1` ?
Ans. 0.015

Qu. Lab note: need IC50 for `CN(CC(F)(F)F)C(=O)C(C#N)=Cc1cccc(CCOC(=O)N[C@@H](Cc2ccccc2)B(O)O)c1` on constitutive proteasome β5c subunit (Homo sapiens, UniProt P28074), anyone have it?
Ans. 3.84

* * *

IC50 overview
# subject.of.test: immunoproteasome LMP2 subunit (Homo sapiens, UniProt P28065)
# protocol.text: Caliper-based proteasome enzymatic activity assay, LMP2
# condition.set: human recombinant immunoproteasome 0.3 nM, FAM peptide substrate 1 μM, rt 2 h
Supply the numeric figure in µM, leaving out any unit text.

Known results for compounds:
compound	units	result.value
CN(C)C(=O)C(C#N)=Cc1cccc(CCCC(=O)N[C@@H](Cc2ccccc2)B(O)O)c1 [Example 24]	µM	1.89
CC(C)(C)NC(=O)C(C#N)=Cc1cccc(COC(=O)N[C@@H](Cc2ccccc2)B(O)O)c1 [Example 16]	µM	3.57
CN(C)C(=O)C(C#N)=Cc1cccc(OCCC(=O)N[C@@H](Cc2ccccc2)B(O)O)c1F [Example 37]	µM	0.223

Please examine the following record next.
Qu. Need IC50 of N#CC(=Cc1cccc(CCCC(=O)N[C@@H](Cc2ccccc2)B(O)O)c1)n1cncn1 [Example 25] , thanks.
Ans. 3

* * *

# subject.of.test: PBMC LMP7 (Homo sapiens, UniProt P28062)
# protocol.text: Durability of binding in cells (wash-out, Proteasome-Glo), PBMC LMP7
# Type: cell-based
# condition.set: 30 min after inhibitor washout
reported.endpoint: IC50 (nM)
Please reply with the bare figure in nM and do not write the unit itself.

Qu. Quick check: IC50 of CC(C)(C)NC(=O)C(C#N)=Cc1cccc(OCCC(=O)N[C@@H](Cc2ccccc2)B(O)O)c1 [Example 2] ?
Ans. 5
